meta.source: patent US8609674B2

target: human KCNQ5 (Homo sapiens); construct: expressed in transfected cells; host or cells: HEK293; experiment: KCNQ5 thallium influx FLIPR TETRA assay; format: cell-based; settings: maximum response relative to 10 μM retigabine (=100%); read-out: KCNQ5 Max. %
As shown below, each of these compounds has a reported Emax value.
// units = %; emit number, no label

                                   compound  quantity  unittext  assayresult
0  CC(C)c1nc2ccccc2c(=O)n1NC(=O)CCSC[C@@H]1CC[C@H]2C[C@@H]1C2(C)C [Example 11]      Emax         %          714
1  CC(C)c1nc2ccccc2c(=O)n1NC(=O)CSC[C@@H]1CC[C@H]2C[C@@H]1C2(C)C [Example 12]      Emax         %          136
2  CC(C)c1nc2ccccc2c(=O)n1NC(=O)C[C@@H]1C[C@@H]2C[C@H](C1)C2(C)C [Example 25]      Emax         %           15

Now take the following compound into account.
Sure, the documented Emax for CC(C)c1nc2ccccc2c(=O)n1NC(=O)C[C@H]1CC[C@H]2C[C@@H]1C2(C)C [Example 21] is 14

---

biological target: human KCNQ2 and KCNQ3 subunits (KCNQ2/3 channels) (Homo sapiens, UniProt O43525+O43526); test: KCNQ2/3 thallium influx FLIPR assay (BTC-AM dye); settings: HEK293 cells stably expressing human KCNQ2 and KCNQ3; Tl+ influx
Examples of compounds with documented EC50 follow.

In [3]: df
Out[3]:
                                   compound    assayresult
0  CCc1nc2ccccc2c(=O)n1NC(=O)C[C@@H]1CC[C@H]2C[C@@H]1C2(C)C  100 to 500 nM

Entry CC(C)c1nc2ccccc2c(=O)n1NC(=O)CSC[C@@H]1CC[C@H]2C[C@@H]1C2(C)C ; EC50 = 100 to 500 nM

Sure, the documented EC50 for CC(C)c1nc2ccccc2c(=O)n1NC(=O)C[C@@H]1C[C@@H]2C[C@H](C1)C2(C)C is 100 to 500 nM

Item: CCN(CC)c1nc2ccccc2c(=O)n1NC(=O)C[C@@H]1CC[C@H]2C[C@@H]1C2(C)C | EC50: 100 to 500 nM

Form field EC50, entry CC(C)c1nc2ccccc2c(=O)n1NC(=O)C[C@H]1CC[C@H]2C[C@@H]1C2(C)C : 500 to 1000 nM

# compound CC(C)c1nc2ccc(F)cc2c(=O)n1NC(=O)C[C@@H]1CC[C@H]2C[C@@H]1C2(C)C ; its EC50 = < 100 nM

The value of EC50 measured for the compound CC1(C)[C@H]2CC[C@@H](CC(=O)Nn3c(CC(F)(F)F)nc4ccccc4c3=O)[C@@H]1C2 turned out to be < 100 nM

Note to self: EC50 recorded for CC(C)c1nc2ccccc2c(=O)n1NC(=O)COC[C@@H]1CC[C@H]2C[C@@H]1C2(C)C was 500 to 1000 nM

Measured EC50 of CC(C)c1nc2ccc(Cl)cc2c(=O)n1NC(=O)C[C@@H]1CC[C@H]2C[C@@H]1C2(C)C : > 30000 nM

Quick note, EC50 for CC(C)c1nc2sccc2c(=O)n1NC(=O)C[C@@H]1CC[C@H]2C[C@@H]1C2(C)C landed at 100 to 500 nM

The compound identified as CC(SC[C@@H]1CC[C@H]2C[C@@H]1C2(C)C)C(=O)Nn1c(C(C)C)nc2ccccc2c1=O (stereo partly shown) registered its EC50 at 100 to 500 nM

The compound listed as CCc1nc2sccc2c(=O)n1NC(=O)C[C@@H]1CC[C@H]2C[C@@H]1C2(C)C has a reported EC50 of 1000 to 10000 nM

EC50 measured on CC1(C)[C@H]2CC[C@@H](CC(=O)Nn3c(C4CC4)nc4cc(F)ccc4c3=O)[C@@H]1C2 = < 100 nM

---

biological target: UniProt:P56696; assay: KCNQ4 thallium influx FLIPR TETRA assay; conditions: HEK293 cells stably expressing human KCNQ4; Tl+ influx
# reported EC50; entries follow

Input CC(C)c1nc2ccc(F)cc2c(=O)n1NC(=O)C[C@@H]1CC[C@H]2C[C@@H]1C2(C)C . Output EC50: > 30 µM

Noted for CCN(CC)c1nc2ccccc2c(=O)n1NC(=O)C[C@@H]1CC[C@H]2C[C@@H]1C2(C)C : its EC50 reads > 30 µM

Sure, the documented EC50 for CC(C)c1nc2ccccc2c(=O)n1NC(=O)C[C@@H]1[C@H](F)C[C@H]2C[C@@H]1C2(C)C is > 30 µM

The recorded EC50 for entry CC(C)c1nc2sccc2c(=O)n1NC(=O)C[C@@H]1CC[C@H]2C[C@@H]1C2(C)C equals 1 to 10 µM

Lab note: Cc1nc2ccccc2c(=O)n1NC(=O)C[C@@H]1CC[C@H]2C[C@@H]1C2(C)C gave EC50 of > 30 µM

Briefly, EC50 measured for CC(C)c1nc2ccccc2c(=O)n1NC(=O)C[C@H]1CC[C@H]2C[C@@H]1C2(C)C : 0.5 to 1 µM

// EC50 value for CC1(C)[C@H]2CC[C@@H](CC(=O)Nn3cnc4ccccc4c3=O)[C@@H]1C2 : > 30 µM

Form field EC50, entry CC1(C)[C@H]2CC[C@@H](CC(=O)Nn3c(C4CC4)nc4cc(C(F)(F)F)ccc4c3=O)[C@@H]1C2 : > 30 µM

The value of EC50 measured for the compound CC(C)c1nc2ccccc2c(=O)n1NC(=O)CC1CC2CC1C2 (racemic) turned out to be 1 to 10 µM

Form: compound = CC(C)c1nc2ccccc2c(=O)n1NC(=O)CSC[C@@H]1CC[C@H]2C[C@@H]1C2(C)C ; EC50 = > 30 µM

---

EC50 by entry:
molecular target: human KCNQ2 and KCNQ3 subunits (KCNQ2/3 channels) (Homo sapiens, UniProt O43525+O43526); assay: KCNQ2/3 thallium influx FLIPR assay (BTC-AM dye); details: HEK293 cells stably expressing human KCNQ2 and KCNQ3; Tl+ influx

>>> print(df.to_string())
                                   molecule  quantity    assayresult
0  CC(C)c1nc2ccccc2c(=O)n1NC(=O)CC1CC2CC1C2 (racemic)      EC50       < 0.1 µM
1  CC1(C)[C@H]2CC[C@@H](CC(=O)Nn3cnc4ccccc4c3=O)[C@@H]1C2      EC50     1 to 10 µM
2  CC1(C)[C@H]2CC[C@@H](CC(=O)Nn3c(C4CC4)nc4sccc4c3=O)[C@@H]1C2      EC50  0.1 to 0.5 µM

Now look at this entry.
Entry under test: CC(C)c1nc2ccccc2c(=O)n1NC(=O)COCC[C@@H]1CC[C@H]2C[C@@H]1C2(C)C . Its EC50 was 1 to 10 µM

---

Emax: recorded values
target: human KCNQ5 (Homo sapiens, UniProt Q9NR82); construct: expressed in transfected cells; host or cells: HEK293; experiment: KCNQ5 thallium influx FLIPR TETRA assay; assay type: cell-based; details: maximum response relative to 10 μM retigabine (=100%); read-out: KCNQ5 Max. %
Express the result in % but write the number alone.

# Emax of CC(C)c1nc2ccccc2c(=O)n1NC(=O)COC[C@@H]1CC[C@H]2C[C@@H]1C2(C)C [Example 8] = 52

CC(SC[C@@H]1CC[C@H]2C[C@@H]1C2(C)C)C(=O)Nn1c(C(C)C)nc2ccccc2c1=O (some centres unmarked) [Example 9] has a reported Emax of 49

Item: CC1(C)[C@H]2CC[C@@H](CC(=O)Nn3c(C4CC4)nc4cc(C(F)(F)F)ccc4c3=O)[C@@H]1C2 [Example 4] | Emax: 12

The recorded Emax for entry CC(C)c1nc2ccccc2c(=O)n1NC(=O)C[C@@H]1CC[C@H]2C[C@@H]1C2(C)C [Example 1] equals 164

Emax in this record for CC(C)c1nc2ccccc2c(=O)n1NC(=O)CC1CC2CC1C2 (racemic) [Example 22] : 857

The reported Emax of the compound CC1(C)[C@H]2CC[C@@H](CC(=O)Nn3c(C4CC4)nc4sccc4c3=O)[C@@H]1C2 [Example 15] was 210

The recorded Emax for CC1(C)[C@H]2CC[C@@H](CC(=O)Nn3c(C(F)(F)F)nc4ccccc4c3=O)[C@@H]1C2 [Example 7] is 52

So for CCc1nc2sccc2c(=O)n1NC(=O)C[C@@H]1CC[C@H]2C[C@@H]1C2(C)C [Example 6] , the logged Emax turned out to be 9

---

Recorded Emax by entry
target: human KCNQ2 and KCNQ3 subunits (KCNQ2/3 channels) (Homo sapiens, UniProt O43525+O43526); construct: expressed in transfected cells; host or cells: HEK293; experiment: KCNQ2/3 thallium influx FLIPR assay (BTC-AM dye); assay type: cell-based; settings: maximum response relative to 10 μM retigabine (=100%); read-out: KCNQ2/3 Max. %
Quick reminder: number only, in %, skip the unit.

                                   compound  assayresult
0  CC(C)c1nc2ccccc2c(=O)n1NC(=O)COCC[C@@H]1CC[C@H]2C[C@@H]1C2(C)C          121
1  CCc1nc2sccc2c(=O)n1NC(=O)C[C@@H]1CC[C@H]2C[C@@H]1C2(C)C           99
2  CC(C)c1nc2ccccc2c(=O)n1NC(=O)C[C@@H]1[C@H](F)C[C@H]2C[C@@H]1C2(C)C           25
3  CC(C)c1nc2ccc(F)cc2c(=O)n1NC(=O)C[C@@H]1CC[C@H]2C[C@@H]1C2(C)C           73
4  CC(C)c1nc2ccccc2c(=O)n1NC(=O)C[C@H]1CC[C@H]2C[C@@H]1C2(C)C          121
5  CC(C)c1nc2ccccc2c(=O)n1NC(=O)CCSC[C@@H]1CC[C@H]2C[C@@H]1C2(C)C          123
6  CC1(C)[C@H]2CC[C@@H](CC(=O)Nn3cnc4ccccc4c3=O)[C@@H]1C2          144
7  CC1(C)[C@H]2CC[C@@H](CC(=O)Nn3c(C4CC4)nc4cc(C(F)(F)F)ccc4c3=O)[C@@H]1C2            3

// recorded Emax for CC(C)c1nc2ccccc2c(=O)n1NC(=O)CC1CC2CC1C2 (racemic) : 179

Summary for this compound, CCc1nc2ccccc2c(=O)n1NC(=O)C[C@@H]1CC[C@H]2C[C@@H]1C2(C)C : Emax is 109

Sure, the documented Emax for CC(C)c1nc2ccccc2c(=O)n1NC(=O)CSC[C@@H]1CC[C@H]2C[C@@H]1C2(C)C is 149

Emax for CC(C)c1nc2ccccc2c(=O)n1NC(=O)C[C@@H]1C[C@@H]2C[C@H](C1)C2(C)C is 93

Input CC(C)c1nc2ccc(Cl)cc2c(=O)n1NC(=O)C[C@@H]1CC[C@H]2C[C@@H]1C2(C)C . Output Emax: 8

// Emax lookup, compound = CC(SC[C@@H]1CC[C@H]2C[C@@H]1C2(C)C)C(=O)Nn1c(C(C)C)nc2ccccc2c1=O (stereo partly shown) , result: 49

Per the record, CC1(C)[C@H]2CC[C@@H](CC(=O)Nn3c(C(F)(F)F)nc4ccccc4c3=O)[C@@H]1C2 has Emax of 58

Value of measured Emax for the entry CC(C)c1nc2ccccc2c(=O)n1NC(=O)COC[C@@H]1CC[C@H]2C[C@@H]1C2(C)C : 132

Measured Emax, CC(C)c1nc2ccccc2c(=O)n1NC(=O)C[C@@H]1CC[C@H]2C[C@@H]1C2(C)C : 103
